Please respond with reported protein stability index for every item in the list.
B1: EHMT1 (parent)
chain: FHKDCASRVNNASYCPHCGEESSK

- Variants of: B1
- test_summary: protein stability index of a GFP-peptide fusion (GPS, HEK-293T) (PSI 1-6); higher = more stable;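 note: lentivirally expressed fusions sorted by FACS into six bins by GFP to DsRed ratio, PSI derived from sequencing read proportions per bin multiplied by bin number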
- settings: c terminus: a fixed tail appended
Give bare numbers.

Example results:
K24Q :: 3.49
C18Y :: 3.16

Answer for every listed entry: what is its protein stability index? The entries follow.
1. S13N
2. R8L
3. C15W
4. P16Q
5. C18P

Output:
[3.6, 3.39, 2.08, 3.61, 3.79]
